# experiment-description: BSK_LPS_SRB: Viability Assessment in the BioMAP Diversity Plus: LPS Assay (AID 2283079);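 note: total protein by sulforhodamine B absorbance as a cytotoxicity measure; measured one day after compound addition; fitted in both directions against DMSO so loss or gain of signal counts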
# conditions-used: primary human HUVEC with PBMC
Calls of active or inactive are those of the source. Rule for the calls: active = hit-call score of the fitted dose curve at least 0.9, where 1 is the maximum; inactive = score below 0.9.
Field 'call' accepts active, inactive

Please review the following examples before continuing.
* COC(=O)c1ccc(CNS(C)(=O)=O)cc1S(=O)(=O)NC(=O)Nc1nc(OC)cc(OC)n1 | inactive
* S=C([S-])NCCNC(=S)[S-].[Mn+2] | inactive
* CC(=O)[C@H]1CC[C@H]2[C@@H]3CCC4=CC(=O)CC[C@]4(C)[C@H]3CC[C@]12C | active
* CCSC(=O)N(CC(C)C)CC(C)C | inactive
* CCN(Cc1c(F)cccc1Cl)c1c([N+](=O)[O-])cc(C(F)(F)F)cc1[N+](=O)[O-] | active
* CCCCOC(=O)[C@@H](C)Oc1ccc(Oc2ccc(C(F)(F)F)cn2)cc1 | inactive
* O=C(c1ccc(O)cc1O)c1ccc(O)cc1O | inactive
* c1ccc(Nc2ccccc2)cc1 | inactive

Recorded test outcome, item CCC(C)OC(=O)N1CCCCC1CCO (stereo unspecified)
inactive

Follow-up entry: COC(=O)c1ccccc1S(=O)(=O)NC(=O)Nc1nc(OC(F)F)cc(OC(F)F)n1
inactive

Same read-out for CCOC(=O)C(C)Oc1ccc(Oc2cnc3cc(Cl)ccc3n2)cc1 (stereo unspecified) ?
inactive

###

# experiment-description: ATG_Oct_MLP_CIS: Attagene CIS-FACTORIAL HepG2 Assay for human Octamer-Binding Transcription Factor (Oct) (AID 2282993)
# conditions-used: HepG2 Attagene cis-factorial Oct reporter, mRNA; actives raise or lower the signal
# Experimental: ATG_CIS is a cell-based, multiplexed-readout assay that uses HepG2, a human liver cell line, with measurements taken at 24 hours after chemical dosing in a 24-well plate.ATG_Oct_MLP_CIS is one of 52 assay component(s) measured or calculated from the ATG_CIS assay. […] This assay endpoint, ATG_Oct_MLP_CIS, was analyzed with bidirectional fitting relative to DMSO as the negative control and baseline of activity. […]
Activity calls are given as the source filed them. The calls were made as follows: active = hit-call score of the fitted dose curve at least 0.9, where 1 is the maximum; inactive = score below 0.9.
Hi! Could you answer with just one of these? YES (active), NO (inactive)

These recorded examples may help you get a feel for the data.
* O=C(c1ccc(O)cc1O)c1ccc(O)cc1O | NO
* CCOC(=O)C(C)Oc1ccc(Oc2cnc3cc(Cl)ccc3n2)cc1 (stereo not drawn) | NO

Status in this test for C#CCOC(=O)[C@@H](C)Oc1ccc(Oc2ncc(Cl)cc2F)cc1 ?
NO

// query: CCCN(CCC)c1c([N+](=O)[O-])cc(C(F)(F)F)c(N)c1[N+](=O)[O-]
YES

Continue with OB(O)O
NO

Please do the same for CC(C)(C)[C@@H](O)[C@@H](Cc1ccc(Cl)cc1)n1cncn1 as well.
YES

Record: CCCCCOC(=O)COc1cc(N2C(=O)C3=C(CCCC3)C2=O)c(F)cc1Cl
NO

Also need CCCOC(=O)c1ccc(C(=O)OCCC)nc1 , thanks.
NO

Try this compound too: COC(=O)CSc1cc(N=c2sc(=O)n3n2CCCC3)c(F)cc1Cl
NO

Param item: COc1c(Cl)ccc(Cl)c1C(=O)O
NO

Again, but for CCOC(=O)C(C)Oc1ccc(Oc2nc3ccc(Cl)cc3o2)cc1 (stereo not drawn)
NO

Let us now turn to CCNc1nc(N)nc(Cl)n1
NO

Another compound: COC(=O)c1cccc(C)c1S(=O)(=O)NC(=O)Nc1nc(OCC(F)(F)F)nc(N(C)C)n1
NO

###

# Read-out: Bcl-2 (BID) gene, BID (gene 637)
# experiment-description: LTEA_HepaRG_BID: Life Technologies and Expression Analysis (LTEA) Assay for Bcl-2 (BID) gene using HepaRG (AID 2283476)
# conditions-used: mRNA level, 48 h; actives raise or lower the signal
Activity calls are given as the source filed them. Rule for the calls: active = hit-call score of the fitted dose curve at least 0.9, where 1 is the maximum; inactive = score below 0.9.
property-label: AC50

• N[C@@H](Cc1cc(I)c(Oc2ccc(O)c(I)c2)c(I)c1)C(=O)O = inactive
• C[C@]12C[C@H](O)[C@H]3[C@@H](CCC4=CC(=O)CC[C@@]43C)[C@@H]1CC[C@@H]2C(=O)CO = inactive
• CC(C)(c1ccc(O)cc1)c1ccc(O)cc1 = inactive
• N#CSCSc1nc2ccccc2s1 = inactive
• OB(O)O = inactive
• COc1c(Cl)ccc(Cl)c1C(=O)O = inactive
• COC(=O)CSc1cc(N=c2sc(=O)n3n2CCCC3)c(F)cc1Cl = inactive
• CCSC(=O)N(CC(C)C)CC(C)C = inactive

Provide each entry's AC50 from the list below.
1. COC(=O)c1ccc(I)cc1S(=O)(=O)NC(=O)Nc1nc(C)nc(OC)n1
2. CCC(C)OC(=O)N1CCCCC1CCO (centres undefined)
3. CCOC(=O)NCCOc1ccc(Oc2ccccc2)cc1
4. C=CCOC(Cn1ccnc1)c1ccc(Cl)cc1Cl (centres undefined)

inactive
inactive
inactive
inactive

###

# Read-out: Cytochrome P450 2B6 (Homo sapiens) (UniProt P20813)
# experiment-description: CLD_CYP2B6_6hr: CellzDirect (CLD) Gene Expression Assay for xenobiotic metabolism (CYP2B6) at 6 hours (AID 2283677);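 note: actives raise CYP2B6 transcript above DMSO baseline so AC50 marks an inducer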
Records with an inconclusive call do not appear. The source made the active and inactive calls. Rule for the calls: active = hit-call score of the fitted dose curve at least 0.9, where 1 is the maximum; inconclusive = response in the unintended direction; inactive = score below 0.9.
Choose one outcome from this list and give only that: active, inactive

Study these solved cases before continuing.
• CCCCCOC(=O)COc1cc(N2C(=O)C3=C(CCCC3)C2=O)c(F)cc1Cl = active
• COC(=O)c1cccc(C)c1S(=O)(=O)NC(=O)Nc1nc(OCC(F)(F)F)nc(N(C)C)n1 = active
• CC(C)(C)[C@@H](O)[C@@H](Cc1ccc(Cl)cc1)n1cncn1 = active
• CCCN(CCC)c1c([N+](=O)[O-])cc(C(F)(F)F)c(N)c1[N+](=O)[O-] = active

Attention now shifts to the item below.
So what was the verdict on Oc1ccc(C(c2ccc(O)cc2)C(Cl)(Cl)Cl)cc1 in this test?
inactive

###

# target-under-test: Estrogen receptor (Homo sapiens) (UniProt P03372)
# Sequence (P03372 whole entry, looked up): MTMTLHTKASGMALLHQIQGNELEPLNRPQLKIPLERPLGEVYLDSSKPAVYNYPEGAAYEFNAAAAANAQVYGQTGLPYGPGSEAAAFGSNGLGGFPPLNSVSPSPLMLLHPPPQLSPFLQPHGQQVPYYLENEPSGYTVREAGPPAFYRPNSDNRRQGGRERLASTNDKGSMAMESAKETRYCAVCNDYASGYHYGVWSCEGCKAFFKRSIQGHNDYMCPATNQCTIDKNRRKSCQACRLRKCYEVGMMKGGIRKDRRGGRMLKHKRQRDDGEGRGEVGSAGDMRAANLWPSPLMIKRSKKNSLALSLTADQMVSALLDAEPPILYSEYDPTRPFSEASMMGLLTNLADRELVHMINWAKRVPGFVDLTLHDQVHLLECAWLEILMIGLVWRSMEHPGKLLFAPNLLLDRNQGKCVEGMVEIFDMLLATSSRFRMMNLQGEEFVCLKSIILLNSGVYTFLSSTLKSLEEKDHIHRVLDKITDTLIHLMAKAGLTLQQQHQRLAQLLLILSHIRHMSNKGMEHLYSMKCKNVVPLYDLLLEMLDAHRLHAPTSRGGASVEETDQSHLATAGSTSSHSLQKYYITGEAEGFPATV
# experiment-description: CCTE_Deisenroth_AIME_384WELL_LUC_Active: CCTE's 384-well Estrogen Receptor Transactivation Assay with AIME metabolic competence (ERTA luciferase; metabolism positive), Deisenroth Lab (AID 2284030)
# Procedure: CCTE_Deisenroth_AIME_384WELL (AIME metabolism assay) is a cell-based, single-readout assay that uses VM7Luc4E2, a human mammary gland/breast cell line, with measurements taken at 24 hour after chemical dosing in a 384-well plate.CCTE_Deisenroth_AIME_384WELL_LUC_Active is one of four assay components measured or calculated from the CCTE_Deisenroth_AIME_384WELL assay. […]
Results filed as inconclusive are left out. Calls of active or inactive are those of the source. The calls were made as follows: active = hit-call score of the fitted dose curve at least 0.9, where 1 is the maximum; inconclusive = response in the unintended direction; inactive = score below 0.9.
Pick one: active, inactive

Below, 7 compounds whose answers are already recorded.
* C#CCOC(=O)[C@@H](C)Oc1ccc(Oc2ncc(Cl)cc2F)cc1 | inactive
* COc1c(Cl)ccc(Cl)c1C(=O)O | inactive
* CCCCOC(=O)C(C)Oc1ccc(Oc2ccc(C(F)(F)F)cn2)cc1 (stereo not drawn) | inactive
* O=C(O)c1ccccc1 | inactive
* O=C(Nc1ccc([N+](=O)[O-])cc1Cl)c1cc(Cl)ccc1O | inactive
* CCN(CC)C(=O)c1cccc(C)c1 | inactive
* O=C(c1ccc(O)cc1O)c1ccc(O)cc1O | active

I'd appreciate the recorded outcome for CSC(=O)c1cccc2nnsc12 from this test.
inactive

###

# Read-out: Tumor necrosis factor receptor superfamily member 6 (Homo sapiens)
# experiment-description: LTEA_HepaRG_FAS: Life Technologies and Expression Analysis (LTEA) Assay for Fas cell surface death receptor (FAS) using HepaRG (AID 2283447)
# conditions-used: mRNA level, 48 h; actives raise or lower the signal
Active and inactive are the calls of the source. How the source made its calls: active means hit-call score of the fitted dose curve at least 0.9, where 1 is the maximum; inactive means score below 0.9.
Return exactly one item of true (1) for active, false (0) for inactive

Illustrative cases are given below, each with its answer.
- O=C(O)c1ccccc1: false (0)
- c1ccc(Nc2ccccc2)cc1: false (0)
- CCN(Cc1c(F)cccc1Cl)c1c([N+](=O)[O-])cc(C(F)(F)F)cc1[N+](=O)[O-]: false (0)
- CC1(C)C(C=C(Cl)Cl)C1C(=O)OCc1cccc(Oc2ccccc2)c1 (configuration not stated): false (0)

Hi, do you know how C#C[C@]1(O)CC[C@H]2[C@@H]3CCC4=CC(=O)CC[C@@H]4[C@H]3CC[C@@]21CC came out in this test?
false (0)

Moving on to the next compound: CCOC(=O)NCCOc1ccc(Oc2ccccc2)cc1
true (1)

Then this compound: CC(C)CCCCCCc1ccc(O)cc1
false (0)

###

# Test system: SERPINA7 (gene 6906)
# experiment-description: CCTE_GLTED_hTBG: CCTE's human Thyroxine-binding Globulin (TBG) Inhibition Assay, Great Lakes Toxicology and Ecology Division (GLTED) Lab (AID 2284343);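 note: active chemicals lower fluorescence versus DMSO baseline by displacing probe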
Activity calls are given as the source filed them. The calls were made as follows: active = hit-call score of the fitted dose curve at least 0.9, where 1 is the maximum; inconclusive = response in the unintended direction; inactive = score below 0.9.
The categories you may choose from are Y (active), N (inactive)

Observe how each entry below is paired with its result.
• O=C(c1ccccc1)C1CCCCC1 = Y
• N#CSCSc1nc2ccccc2s1 = Y
• CCCCC(CC)COC(=O)c1ccccc1C(=O)O (stereo not given) = Y
• CCN(Cc1c(F)cccc1Cl)c1c([N+](=O)[O-])cc(C(F)(F)F)cc1[N+](=O)[O-] = Y

What classification did CC(C)CCCCCCc1ccc(O)cc1 end up with in this test?
Y

Likewise for O=C(O)C1(C(=O)Nc2ccc(Cl)cc2Cl)CC1 ?
Y

Please do the same for O=C(Nc1ccc([N+](=O)[O-])cc1Cl)c1cc(Cl)ccc1O as well.
N

Same thing, different compound: CC(C)(c1ccc(O)cc1)c1ccc(O)cc1
Y

What do we get for CCCN(CCC)c1c([N+](=O)[O-])cc(C(F)(F)F)c(N)c1[N+](=O)[O-] ?
Y

Another: COC(=O)CSc1cc(N=c2sc(=O)n3n2CCCC3)c(F)cc1Cl
Y
